Source listed as patent US20170240596A1.

Target: Prostate-specific membrane antigen (PSMA) (human), Q04609
Sequence (Q04609 whole entry): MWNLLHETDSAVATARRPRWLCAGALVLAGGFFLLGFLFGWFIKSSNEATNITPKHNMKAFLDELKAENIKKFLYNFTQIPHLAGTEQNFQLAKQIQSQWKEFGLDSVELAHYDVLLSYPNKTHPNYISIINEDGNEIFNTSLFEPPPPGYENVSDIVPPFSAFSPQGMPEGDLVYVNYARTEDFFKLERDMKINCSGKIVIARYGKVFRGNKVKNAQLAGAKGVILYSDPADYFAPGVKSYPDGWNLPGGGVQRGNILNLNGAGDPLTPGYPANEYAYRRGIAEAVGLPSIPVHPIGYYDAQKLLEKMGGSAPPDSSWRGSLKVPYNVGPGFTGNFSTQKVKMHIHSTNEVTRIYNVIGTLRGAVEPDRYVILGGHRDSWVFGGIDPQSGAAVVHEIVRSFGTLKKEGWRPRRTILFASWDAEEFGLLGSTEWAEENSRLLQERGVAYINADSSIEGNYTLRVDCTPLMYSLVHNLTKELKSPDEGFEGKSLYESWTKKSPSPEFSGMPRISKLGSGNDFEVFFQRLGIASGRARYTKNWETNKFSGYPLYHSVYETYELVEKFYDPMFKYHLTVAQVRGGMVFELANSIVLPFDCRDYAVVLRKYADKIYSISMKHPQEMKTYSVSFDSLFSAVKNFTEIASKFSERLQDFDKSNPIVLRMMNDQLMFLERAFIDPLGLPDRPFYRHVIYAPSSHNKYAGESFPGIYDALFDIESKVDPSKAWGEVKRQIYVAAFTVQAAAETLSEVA
Test: apparent Kd, flow cytometry, FAM-labeled peptide on PSMA-positive LNCaP cells, 4 C
Conditions: remark: other sources report otherwise
No end group written: not given here.
assay-endpoint: pKd
Scale: pKd equals -log10([C]), with [C] in mol/L.

# get_value(readout='pKd', item= WQPDTAHHWATL (also: FAM label, position not given here) [FAM-labeled WQP peptide …] ) 4.63
